Listed below: EC50 (agonist) values for each entry.
- assay-target: mouse melanocortin-5 receptor (mouse, UniProt P41149 1-325)
- Sequence (P41149 whole entry): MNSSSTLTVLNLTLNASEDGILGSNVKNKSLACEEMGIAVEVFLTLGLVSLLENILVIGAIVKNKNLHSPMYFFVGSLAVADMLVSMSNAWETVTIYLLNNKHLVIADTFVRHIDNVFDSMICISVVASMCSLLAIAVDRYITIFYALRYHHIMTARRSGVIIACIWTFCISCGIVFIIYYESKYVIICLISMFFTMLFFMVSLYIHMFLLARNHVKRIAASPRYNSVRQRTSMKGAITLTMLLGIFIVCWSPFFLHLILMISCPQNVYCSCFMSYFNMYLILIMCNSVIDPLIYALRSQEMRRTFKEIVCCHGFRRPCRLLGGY
- assay-comment: cell-based or functional assay
[ ]: non-standard residue; d: D form. Nle = CCCC[C@H](N)C(=O)O

[
  {
    "binder": "Ac-SYS[Nle]EFFRGKPV-NH2 (SMILES CCCC[C@H](NC(=O)[C@H](CO)NC(=O)[C@H](Cc1ccc(O)cc1)NC(=O)[C@H](CO)NC(C)=O)C(=O)N[C@@H](CCC(=O)O)C(=O)N[C@@H](Cc1ccccc1)C(=O)N[C@@H](Cc1ccccc1)C(=O)N[C@@H](CCCNC(=N)N)C(=O)NCC(=O)N[C@@H](CCCCN)C(=O)N1CCC[C@H]1C(=O)N[C@H](C(N)=O)C(C)C) [SEQ ID NO:13 (Ac-Ser-Tyr-Ser-Nle-Glu-Phe-Phe-Arg-Gly-Lys-Pro-Val)]",
    "comparison-operator": ">",
    "EC50 (agonist) (nM)": 100000
  },
  {
    "binder": "YDFXRWNAFXY (Asp-Dpr side chain lactam bridge; Dpr; DPhe; C-terminal amide (amide resin)) [SEQ ID NO:29 (Tyr-c[Asp-Phe-DPhe-Arg-Trp-Asn-Ala-Phe-Dpr]-Tyr)]",
    "comparison-operator": "=",
    "EC50 (agonist) (nM)": 3.15
  }
]

Reference for the values: patent US7084111
